- MEASUREMENT DESCRIPTION: Human HepG2 cell viability assay in 384 well format
- Assay type: toxicity, cell-based
- Parameters: dose 125 nL, time 70.5 hour; concentration not given beside the values
- RUN PARAMETERS: HepG2 cells, read-out: Inhibition
Reported cytotoxicity at 70.5 h is given for each of the following compounds.
OUTCOME MEASURE: cytotoxicity at 70.5 h (%)

>>> endpoint_result("COCc1csc(NC(=O)N2CCC(Cc3cnn(C)c3)C2)n1 (configuration not stated)")
-4.37
>>> endpoint_result("O=C(NCCc1ccc(F)cc1)NCC(O)c1cccc(F)c1 (configuration not stated)")
23.3
>>> endpoint_result("CC(C#N)CSc1ccccc1NCC(=O)NCc1ccccc1 (configuration not stated)")
4.47
>>> endpoint_result("CCS(=O)(=O)N1CCCn2c(nc(CN3CCCC3)cc2=O)C1")
-7.43
>>> endpoint_result("COc1cc(N2CCN(CC3CC3)c3nc(C)ccc3C2)ncn1")
0.313
>>> endpoint_result("CCOc1cc(CNC(C)c2ccc(F)cc2)ccn1 (configuration not stated)")
26.8
>>> endpoint_result("Cc1ccsc1CNc1ccc(C(=O)N2CCNC(=O)C2)cn1")
-2.58
>>> endpoint_result("Cc1ccc(C(=O)Nc2cccc3c2C(=O)NC3)c(C)n1")
2.51
>>> endpoint_result("Cn1ncc2c(=O)[nH]c(CN3CCC(Cc4ccccc4)CC3)nc21")
34.8
>>> endpoint_result("CC(C)c1nnc(CNC2CCCN(Cc3noc(C4CC4)n3)C2)o1 (configuration not stated)")
-5.67
>>> endpoint_result("Cc1nonc1C1CCCN1C(=O)c1cc2n(n1)CCCNC2 (configuration not stated)")
4.03
>>> endpoint_result("Cc1nnc(CN2CCCC2c2cccc(Br)c2)o1 (configuration not stated)")
-4.5
